# Tested on: L1210 leukemia ip in BDF1 mice, survival T/C
# protocol_notes: NCI In Vivo Anticancer Drug Screen. Data for tumor model L1210 Leukemia (intraperitoneal) in B6D2F1 (BDF1) mice
# test_settings: endpoint: mean survival time; dose: 75.0 mg/kg/injection; schedule: Q01DX009 (ip); vehicle: saline; higher = longer survival
Inconclusive results and toxic doses are left out.
measured_quantity: T/C

Would you please look over these solved cases?
compound	measured_on	T/C
O=C(c1ccccc1)N(O)c1ccccc1	L1210 leukemia ip in BDF1 mice, survival T/C	91 % of control
CC(C)C[C@H](O)C(=O)O	L1210 leukemia ip in BDF1 mice, survival T/C	98 % of control
CC1(C)N=C(N)N=C(N)N1c1ccc(CCCCc2ccc(S(=O)(=O)F)cc2Cl)c(Cl)c1	L1210 leukemia ip in BDF1 mice, survival T/C	116 % of control
O=C1CCSc2ccccc21	L1210 leukemia ip in BDF1 mice, survival T/C	111 % of control

Next compound, T/C to be filled in.
input: What measured T/C goes with C[C@H](CCC(=O)O)[C@H]1CC[C@H]2[C@@H]3[C@H](O)C[C@@H]4C[C@H](O)CC[C@]4(C)[C@H]3C[C@H](O)[C@]12C (tested in a mixture with another compound) ?
output: 111 % of control

* * *

# Tested on: L1210 leukemia ip in BDF1 mice, survival T/C
# protocol_notes: NCI In Vivo Anticancer Drug Screen. Data for tumor model L1210 Leukemia (intraperitoneal) in B6D2F1 (BDF1) mice
# test_settings: endpoint: mean survival time; dose: 100.0 mg/kg/injection; schedule: Q04DX003 (ip); vehicle: Klucel (hydroxypropylcellulose) (HPC); higher = longer survival
Toxic doses and inconclusive results are not listed.
Assignment: determine reported T/C for the given compounds.

Would you please look over these solved cases?
compound	measured_quantity	recorded_measurement
Fc1cccc2c1[nH]c1cc3ccncc3cc12	T/C	98 % of control
O=C(O)CSCc1ccc([N+](=O)[O-])cc1	T/C	100 % of control
O=C(Nc1ccccc1O)c1ccccc1	T/C	109 % of control
CCOC(=O)/C=C\n1c(=O)cc(C)c2ccccc21	T/C	89 % of control

Dear reader, for each entry below, please note its T/C.
1. Cc1ccc(Cl)cc1NC(=O)c1ccc(Cl)cc1Cl
2. CCC(=O)OC1C(C)OC(OC2C(C)OC(O[C@H]3[C@@H](CC=O)C[C@@H](C)[C@@H](O)/C=C/C=C/C[C@@H](C)OC(=O)C[C@@H](OC(=O)CC)[C@@H]3OC)C(O)C2N(C)C)CC1(C)O (stereo not given in full)
3. N#Cc1cscc1C#N
4. O=C(NCCCl)NNC(=O)c1ccccc1
5. O=C(O)CCC(=O)c1cccc([N+](=O)[O-])c1
6. N#Cc1sc2ccccc2c1O
7. O=S(O)c1cc(Br)ccc1Br

output:
92 % of control
104 % of control
111 % of control
117 % of control
91 % of control
97 % of control
93 % of control

Dear reader, for each entry below, please note its T/C.
1. ClC1=C(Cl)C2(Cl)C(Br)C(Br)C1(Cl)C2(Cl)Cl (stereo not given)
2. CCOC(=O)c1ccc(NC(=O)Sc2cccc(C)c2)cc1
3. O=C1c2cc(Br)cc(Br)c2NCCCC1(Br)Br
4. O=C1CN=C(c2ccccc2Cl)c2cc(Cl)ccc2N1
5. Cc1cnc(N)cn1 (tested in a mixture with another compound)
6. CCC1CN2C(=N1)c1ccccc1-c1cc([N+](=O)[O-])ccc12 (stereo not given)

output:
1. 102 % of control
2. 93 % of control
3. 94 % of control
4. 100 % of control
5. 102 % of control
6. 99 % of control

Dear reader, for each entry below, please note its T/C.
1. O=C1CCCC(=O)C1C(C[N+](=O)[O-])c1ccccc1 (stereo not given)
2. Cc1cc(O)c(N=Nc2ccccc2)cc1C
3. O=C(O)c1ccccc1NC(=O)C(F)(F)F

output:
1: 98 % of control; 2: 101 % of control; 3: 101 % of control

Dear reader, for each entry below, please note its T/C.
1. c1ccc2c(CCCc3nccc4ccccc34)nccc2c1
2. O=[N+]([O-])c1cc(Cl)cc2c1-c1c(Cl)cc(Cl)cc1/C2=N/O
3. CCOC(=O)c1cnn(-c2ccccc2)c1C
4. CC(=O)N(C(C)=O)c1ccc2c(c1)-n1cccc1C2=O

output:
["108 % of control", "101 % of control", "112 % of control", "100 % of control"]

input: What measured T/C goes with "CCOC(=O)C(=O)Cc1cnc2ccccc2n1" ?
output: 97 % of control

Every entry's value here was drawn from PubChem BioAssay AID248.
